Data provenance: the kinase profiling compilation of Christmann-Franck et al. (2016)

SYSTEM_UNDER_TEST: EPHA3 (human)
ASSAY_EXPLANATION: radiometric filter-binding kinase assay, Kinase HotSpot
ASSAY_CONTEXT: compound 0.5 µM; ATP 10 µM
Quick list: residual activity per entry.
MEASUREMENT_TYPE: residual activity (%)

INSERT INTO results (compound, system_under_test, measurement_type, value_measured) VALUES
  ('CCC(=O)Nc1ccc2ncnc(Nc3cccc(Br)c3)c2c1', 'EPHA3 (human)', 'residual activity', 106),
  ('CC(C)N(CCC(=O)c1ccc2ccccc2c1)Cc1ccccc1', 'EPHA3 (human)', 'residual activity', 85),
  ('Cc1ccc(NC2=CC(=O)c3sc(C)nc3C2=O)cc1', 'EPHA3 (human)', 'residual activity', 96.6),
  ('CNc1cc2c(Nc3cccc(Br)c3)ncnc2cn1', 'EPHA3 (human)', 'residual activity', 96.1),
  ('N#CC(C#N)=C(N)/C(C#N)=C/c1ccc(O)cc1', 'EPHA3 (human)', 'residual activity', 98.3),
  ('N#C/C(=C(/N)Sc1ccc(N)cc1)c1ccccc1C(F)(F)F', 'EPHA3 (human)', 'residual activity', 105),
  ('CCOC(=O)c1c(C)[nH]c(/C=C2\C(=O)Nc3ccccc32)c1C', 'EPHA3 (human)', 'residual activity', 96.3),
  ('O=c1cc(N2CCOCC2)oc2c1ccc1ccccc12', 'EPHA3 (human)', 'residual activity', 112),
  ('CO[C@H]1CC2CC[C@@H](C)[C@@](O)(O2)C(=O)C(=O)N2CCCC[C@H]2C(=O)OC([C@H](C)C[C@@H]2CC[C@@H](O)[C@H](OC)C2)CC(=O)[C@H](C)/C=C(\C)[C@@H](O)[C@@H](OC)C(=O)[C@H](C)C[C@H](C)/C=C/C=C/C=C/1C (stereo not given in full)', 'EPHA3 (human)', 'residual activity', 109),
  ('COc1cc2ncnc(Nc3cccc(Cl)c3)c2cc1OC', 'EPHA3 (human)', 'residual activity', 97.9);
